# Test description: physchem
# Condition set: octan-1-ol/water, pH 7.4, LogD7.4
Readout name: logD

In [3]: df
Out[3]:
                                   compound  reported
0                    Cc1cc(=O)[nH]c2ccccc12       1.9
1   Cn1c(CN2CCN(c3ccc(Cl)cc3)CC2)nc2ccccc21      3.54
2  COc1cc2nnc(C(N)=O)c(Nc3cc(C)ccc3F)c2cc1N1CCN(C)CC1      2.57
3  COCCC(=O)N[C@@H](C)c1ccc(Nc2ncc3cc(-c4ccncc4)ccc3n2)cc1      3.05
4  CS(=O)(=O)C1(c2cc(N3CCOCC3)nc(-c3ccccc3)n2)CC1       2.6
5  Cc1cc(Nc2nc(N[C@@H](C)c3ccc(F)cn3)cnc2C)[nH]n1      1.73
6  CN(CCOc1ccc(C[C@H](Nc2ccccc2C(=O)c2ccccc2)C(=O)O)cc1)c1ccccn1      2.15
7  COc1cc(-c2ccc(Nc3ccccc3C(=O)O)c(OC)c2)ccc1Nc1ccccc1C(=O)O       1.8
8            CSc1ncccc1C(=O)NCCc1ccc(Cl)cc1      3.31
9  CC[C@H](NC(=O)c1c([S+]([O-])CC)c(-c2ccccc2)nc2ccccc12)c1ccccc1 (stereo not given in full)      3.45
